# Tested on: A549 NSCLC
# assayRemarks: NCI tumour cell line growth inhibition, 48 h; in the data active = GI50 below about 0.43 µM; inactive = the rest
Labels: T for active, F for inactive

[[record]]
compound = "CN(C)C(=O)O[C@@H]1CN[C@@H](C#Cc2cc3ncnc(Nc4ccc(OCc5cccc(F)c5)c(Cl)c4)c3s2)C1"
experimentalsystem = "A549 NSCLC"
classification = "F"

[[record]]
compound = "COC(=O)CCC1=C(C)/C(=C/c2[nH]c(-c3ccc[nH]3)cc2OC)N=C1C"
experimentalsystem = "A549 NSCLC"
classification = "F"

[[record]]
compound = "CCCCCCN(CCCCCC)CC(O)c1ccc2c3c(cccc13)CC2 (configuration not stated)"
experimentalsystem = "A549 NSCLC"
classification = "F"

[[record]]
compound = "COc1ccc(-c2cn[nH]c2-c2cc(OC)c3c(c2)OCCO3)cc1"
experimentalsystem = "A549 NSCLC"
classification = "T"

[[record]]
compound = "C/C(=N\\NC(N)=S)c1nc2ccc(Cl)cc2[nH]1"
experimentalsystem = "A549 NSCLC"
classification = "F"

[[record]]
compound = "CSc1ccc(/C=C2\\C=C(CC(=O)NCc3ccc(C(=O)c4ccccc4)cc3)c3cc(F)ccc32)cc1"
experimentalsystem = "A549 NSCLC"
classification = "T"

[[record]]
compound = "O=[N+]([O-])c1ccc2c(c1)[O][Sn][O]2"
experimentalsystem = "A549 NSCLC"
classification = "F"


###

# Tested on: SK-MEL-28 melanoma
# assayRemarks: NCI tumour cell line growth inhibition, 48 h
Collected TGI values appear next to each entry.
readoutLabel: TGI

[[record]]
molecule = "CC(=O)c1cc2c(s1)C(=O)c1ccccc1C2=O"
val = "36.2 µM"

[[record]]
molecule = "Nc1ccc(S(=O)(=O)NCc2nccs2)cc1"
val = "51.2 µM"

[[record]]
molecule = "COc1ccc(C2CC(n3nnnc3-c3ccccc3)=NN2)cc1 (stereo unspecified)"
val = "> 100 µM"

[[record]]
molecule = "O=C1C2Cc3ccccc3CN2C(=O)N1CCN1CCCC1 (stereo unspecified)"
val = "> 100 µM"

[[record]]
molecule = "Cn1c(=O)c2c(ncn2CN2CCN(Cn3cnc4c3c(=O)n(C)c(=O)n4C)CC2)n(C)c1=O"
val = "> 100 µM"

[[record]]
molecule = "O=C1Nc2cccc3cc(NCC(O)CCl)cc1c23 (stereo unspecified)"
val = "> 100 µM"


###

# Tested on: RPMI-8226 leukemia
# assayRemarks: NCI tumour cell line growth inhibition, 48 h
readoutLabel: TGI

[[record]]
compound = "CC(=O)O[C@@H]1C2C(=O)OC(=O)C2C2CCC[C@]23O[C@H]13 (stereo partly specified)"
readoutlabel = "TGI"
val = "> 100 µM"

[[record]]
compound = "Cc1c2ccc(N(C)c3ccnc(Nc4cccc(S(N)(=O)=O)c4)n3)cc2nn1C"
readoutlabel = "TGI"
val = "> 25 µM"

[[record]]
compound = "CC[C@@]1(O)C(=O)OCc2c1cc1n(c2=O)Cc2cc3cc(N)ccc3nc2-1"
readoutlabel = "TGI"
val = "4.45 µM"

[[record]]
compound = "CCN(CC)C1CC(n2cc(C)c(=O)[nH]c2=O)OC1CO (stereo unspecified)"
readoutlabel = "TGI"
val = "> 100 µM"

[[record]]
compound = "CCOc1cc(C2CC(c3ccc(NS(=O)(=O)c4cc([N+](=O)[O-])ccc4C)cc3)=NN2)ccc1O (stereo unspecified)"
readoutlabel = "TGI"
val = "> 100 µM"

[[record]]
compound = "COC(=O)C1=C(C(=O)OC)SC(=C(Cl)C(=S)Sc2ccccc2N)S1"
readoutlabel = "TGI"
val = "> 100 µM"

[[record]]
compound = "O=[N+]([O-])c1ccc2c(c1)[O][Sn]([I])([I])[O]2"
readoutlabel = "TGI"
val = "> 100 µM"

[[record]]
compound = "c1cc(CNC2C3CCC(C3)C2c2c[nH]c3ccccc23)cc(CNC2C3CCC(C3)C2c2c[nH]c3ccccc23)c1 (stereo unspecified)"
readoutlabel = "TGI"
val = "> 100 µM"

[[record]]
compound = "CSc1c(C#N)c2n(c3ccccc13)c1ccccc1[n+]2C"
readoutlabel = "TGI"
val = "85.6 µM"

[[record]]
compound = "C[C@]12CC[C@@H]3c4ccc(O)cc4C(O)C[C@H]3[C@@H]1CCC2=O (stereo partly specified)"
readoutlabel = "TGI"
val = "> 100 µM"

[[record]]
compound = "CCOC(=O)c1cc(/C=C/C(C)=C/C(=O)OC)n(C)c1C"
readoutlabel = "TGI"
val = "> 100 µM"

[[record]]
compound = "CCOc1ccccc1NC(=O)CCc1nc(=S)[nH][nH]1"
readoutlabel = "TGI"
val = "> 100 µM"

[[record]]
compound = "Cc1c(-c2ccccc2)c(C#N)c2nnc(C(N)=O)c(N)n12"
readoutlabel = "TGI"
val = "> 100 µM"

[[record]]
compound = "CCOC(=O)C(CS)NC(=O)CCCCCCCC(=O)NC(CS)C(=O)OCC (stereo unspecified)"
readoutlabel = "TGI"
val = "> 100 µM"

[[record]]
compound = "CC(C)(C)OC[C@H](O)CC#N"
readoutlabel = "TGI"
val = "> 100 µM"

[[record]]
compound = "COc1ccc(C2CC(n3nnnc3-c3ccccc3)=NN2)cc1 (stereo unspecified)"
readoutlabel = "TGI"
val = "53.5 µM"

[[record]]
compound = "COc1ccc(Cl)cc1Nc1nc(C(F)(F)F)ccc1C(=O)N/N=C/c1cc(OC)c(OC)c(OC)c1"
readoutlabel = "TGI"
val = "> 100 µM"

[[record]]
compound = "COC(=O)CCC1=C(C)/C(=C/c2[nH]c(-c3ccc[nH]3)cc2OC)N=C1C"
readoutlabel = "TGI"
val = "1.38 µM"

[[record]]
compound = "COc1ccc2nc3cc(Cl)ccc3c(NCCNCCCNC(=O)c3cc(-c4ccccc4)nc4ccccc34)c2c1"
readoutlabel = "TGI"
val = "> 100 µM"

[[record]]
compound = "N#CC(NNC(=O)c1ccccc1O)c1cccc(O)c1 (stereo unspecified)"
readoutlabel = "TGI"
val = "> 100 µM"

[[record]]
compound = "COc1cc(/C=C2\\CCC(C)C3=C2NC(=S)NC3c2cc(OC)c(OC)c(OC)c2)cc(OC)c1OC (stereo unspecified)"
readoutlabel = "TGI"
val = "68.4 µM"

[[record]]
compound = "CC1(COS(=O)(=O)OCC2(C)COS(=O)(=O)OC2)COS(=O)(=O)OC1"
readoutlabel = "TGI"
val = "> 50.1 µM"

[[record]]
compound = "Cc1cc2c(=O)c3ccccc3[nH]c2c(C(=O)O)c1C"
readoutlabel = "TGI"
val = "> 100 µM"

[[record]]
compound = "O=C1/C(=C2\\Sc3c(ccc(Cl)c3Cl)C2=O)Sc2c1ccc(Cl)c2Cl"
readoutlabel = "TGI"
val = "> 100 µM"

[[record]]
compound = "CCOC(=O)[C@H]1Nc2ccc(OC)cc2C2c3ccccc3CC21 (stereo partly specified)"
readoutlabel = "TGI"
val = "> 100 µM"

[[record]]
compound = "S=c1nc(-c2cccnc2)[nH][nH]1"
readoutlabel = "TGI"
val = "> 100 µM"

[[record]]
compound = "COc1c2cc(C(C)(C)C)cc1Cc1cccc(c1O)Cc1cc(C(C)(C)C)cc(c1OC)Cc1cccc(c1O)Cc1cc(C(C)(C)C)cc(c1OC)Cc1cccc(c1O)C2"
readoutlabel = "TGI"
val = "> 100 µM"

[[record]]
compound = "[N-]=[N+]=Nc1ccc(CNc2cc(=O)[nH]c(=O)[nH]2)cc1"
readoutlabel = "TGI"
val = "> 100 µM"

[[record]]
compound = "C[N+](C)(C)c1ncnc2c1ncn2C1CCCCO1 (stereo unspecified)"
readoutlabel = "TGI"
val = "> 100 µM"

[[record]]
compound = "C=C(C)C1CC=C(C)C2(C1)OCC(C)(C)C(C)O2 (stereo unspecified)"
readoutlabel = "TGI"
val = "43.2 µM"

[[record]]
compound = "Cc1cc(-c2nnc3n2CCCCC3)c(C)n1-c1ccc(Cl)c(Cl)c1"
readoutlabel = "TGI"
val = "39.9 µM"

[[record]]
compound = "O=c1oc2ccc(Cl)cc2cc1-c1cn2cc(Cl)ccc2n1"
readoutlabel = "TGI"
val = "> 100 µM"

[[record]]
compound = "COc1ccc(-c2cn[nH]c2-c2cc(OC)c3c(c2)OCCO3)cc1"
readoutlabel = "TGI"
val = "25.2 µM"

[[record]]
compound = "CCOc1c(Cl)cc(CNC(C)C(O)c2ccccc2)cc1OC (stereo unspecified)"
readoutlabel = "TGI"
val = "57.7 µM"

[[record]]
compound = "Cc1c2cc[n+](C)cc2c(C)c2c1[nH]c1ccc(O)c(OCC(F)(F)F)c12"
readoutlabel = "TGI"
val = "16.8 µM"

[[record]]
compound = "COc1cccc(-c2cc(=O)c3ccc(C)nc3[nH]2)c1"
readoutlabel = "TGI"
val = "1.78 µM"


###

# Tested on: OVCAR-5 ovarian
# assayRemarks: NCI tumour cell line growth inhibition, 48 h
Collected TGI values appear next to each entry.
readoutLabel: TGI

[[record]]
molecule = "COC(=O)c1c(-c2ccccc2)sc(-c2cccc3ccccc23)c1C(=O)OC"
experimentalsystem = "OVCAR-5 ovarian"
val = "> 100 µM"

[[record]]
molecule = "c1ccc2c(Cc3nnc4sc(SSc5nn6c(Cc7c[nH]c8ccccc78)nnc6s5)nn34)c[nH]c2c1"
experimentalsystem = "OVCAR-5 ovarian"
val = "53.1 µM"

[[record]]
molecule = "O=[N+]([O-])c1ccc2c(c1)[O][Sn]([I])([I])[O]2"
experimentalsystem = "OVCAR-5 ovarian"
val = "> 100 µM"

[[record]]
molecule = "O=c1oc2ccc(Cl)cc2cc1-c1cn2cc(Cl)ccc2n1"
experimentalsystem = "OVCAR-5 ovarian"
val = "> 100 µM"

[[record]]
molecule = "Cc1c2ccc(N(C)c3ccnc(Nc4cccc(S(N)(=O)=O)c4)n3)cc2nn1C"
experimentalsystem = "OVCAR-5 ovarian"
val = "> 25 µM"

[[record]]
molecule = "Cc1cc(C)n(CN(Cn2nc(C)cc2C)C2CCCCC2)n1"
experimentalsystem = "OVCAR-5 ovarian"
val = "53.8 µM"

[[record]]
molecule = "C=C(C)C1CC=C(C)C2(C1)OCC(C)(C)C(C)O2 (configuration not stated)"
experimentalsystem = "OVCAR-5 ovarian"
val = "38.5 µM"

[[record]]
molecule = "CN(C)CCCOCCn1c2c(c3ccccc31)CCCC2"
experimentalsystem = "OVCAR-5 ovarian"
val = "30.5 µM"

[[record]]
molecule = "O=S1(=O)c2ccccc2NC(=S)CC1c1ccccc1 (configuration not stated)"
experimentalsystem = "OVCAR-5 ovarian"
val = "> 100 µM"

[[record]]
molecule = "CCN(CC)c1ccc2c(c1)Nc1cc(=C(C#N)C#N)c3ccccc3c1=N2"
experimentalsystem = "OVCAR-5 ovarian"
val = "> 100 µM"

[[record]]
molecule = "Cc1ccc(NC(=O)Cn2c(Br)nc3c2c(=O)n(C)c(=O)n3C)cc1"
experimentalsystem = "OVCAR-5 ovarian"
val = "13.9 µM"

[[record]]
molecule = "Cc1nc(C(N)=S)sc1C(=O)C/C(=N/N)C(=O)Nc1cccc(Cl)c1C"
experimentalsystem = "OVCAR-5 ovarian"
val = "> 100 µM"

[[record]]
molecule = "O=c1[nH]c(=O)n(C2OC3COC2C3O)cc1F (configuration not stated)"
experimentalsystem = "OVCAR-5 ovarian"
val = "> 100 µM"

[[record]]
molecule = "NNC(=S)N1CCN(C(=S)NN)CC1"
experimentalsystem = "OVCAR-5 ovarian"
val = "> 100 µM"

[[record]]
molecule = "CCCCCCN(CCCCCC)CC(O)c1ccc2c3c(cccc13)CC2 (configuration not stated)"
experimentalsystem = "OVCAR-5 ovarian"
val = "23.9 µM"

[[record]]
molecule = "COC(=O)[C@@H]1C[C@@]2(C3C=CN(C(=O)C(F)(F)F)C=C3)c3ccccc3N(C(=O)C(F)(F)F)[C@H]2N1C(=O)OC"
experimentalsystem = "OVCAR-5 ovarian"
val = "> 100 µM"

[[record]]
molecule = "CN=C1SC(=Nc2ccc(N(C)C)cc2)N1C"
experimentalsystem = "OVCAR-5 ovarian"
val = "> 100 µM"

[[record]]
molecule = "O=C1CC(=O)OC(c2ccc([N+](=O)[O-])cc2)O1"
experimentalsystem = "OVCAR-5 ovarian"
val = "4.93 µM"

[[record]]
molecule = "C[N+](C)(C)c1ncnc2c1ncn2C1CCCCO1 (configuration not stated)"
experimentalsystem = "OVCAR-5 ovarian"
val = "> 100 µM"

[[record]]
molecule = "O=C1CCCN1CC#CCN1CCCC1"
experimentalsystem = "OVCAR-5 ovarian"
val = "> 100 µM"

[[record]]
molecule = "S=C(S)NCC1CCC(CNC(=S)S)CC1 (configuration not stated)"
experimentalsystem = "OVCAR-5 ovarian"
val = "> 100 µM"

[[record]]
molecule = "O=c1[nH]c2cc3[nH]c4ncccc4c(=O)c3cc2[nH]1"
experimentalsystem = "OVCAR-5 ovarian"
val = "> 10 µM"

